Value source: paper PMC5814047

Biological target: IDE (Homo sapiens, UniProt P14735)
Construct: made in house; host or cells: bacteria
Sequence (P14735 whole entry): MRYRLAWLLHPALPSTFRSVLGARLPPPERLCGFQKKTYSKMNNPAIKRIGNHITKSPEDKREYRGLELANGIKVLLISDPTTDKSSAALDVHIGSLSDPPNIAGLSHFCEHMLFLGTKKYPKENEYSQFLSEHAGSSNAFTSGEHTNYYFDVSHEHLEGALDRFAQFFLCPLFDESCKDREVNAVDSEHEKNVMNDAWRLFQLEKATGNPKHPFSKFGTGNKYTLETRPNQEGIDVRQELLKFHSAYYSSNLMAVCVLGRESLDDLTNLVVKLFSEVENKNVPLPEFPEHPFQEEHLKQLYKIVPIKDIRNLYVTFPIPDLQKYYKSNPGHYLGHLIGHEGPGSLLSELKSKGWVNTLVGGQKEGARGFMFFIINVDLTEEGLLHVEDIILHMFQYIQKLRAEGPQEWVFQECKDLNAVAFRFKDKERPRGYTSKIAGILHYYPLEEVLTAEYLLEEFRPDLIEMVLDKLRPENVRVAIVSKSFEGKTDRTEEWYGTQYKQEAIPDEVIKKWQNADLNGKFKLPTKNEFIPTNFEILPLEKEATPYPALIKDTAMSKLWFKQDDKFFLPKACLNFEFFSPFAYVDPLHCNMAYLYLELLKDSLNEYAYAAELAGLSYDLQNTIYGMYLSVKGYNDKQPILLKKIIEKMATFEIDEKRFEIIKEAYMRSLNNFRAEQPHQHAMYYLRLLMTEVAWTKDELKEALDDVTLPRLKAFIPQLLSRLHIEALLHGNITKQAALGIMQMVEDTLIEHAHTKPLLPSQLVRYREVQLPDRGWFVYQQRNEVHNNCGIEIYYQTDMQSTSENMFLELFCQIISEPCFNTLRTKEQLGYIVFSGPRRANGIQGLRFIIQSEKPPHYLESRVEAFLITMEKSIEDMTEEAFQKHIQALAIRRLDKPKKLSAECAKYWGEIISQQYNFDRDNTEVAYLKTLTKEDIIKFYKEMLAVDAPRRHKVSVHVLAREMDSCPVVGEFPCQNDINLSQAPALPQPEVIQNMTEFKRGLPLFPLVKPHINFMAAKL
Experiment: Vulnerability of peptides to degradation by IDE: 0 vs 4 h pre-incubation, then FRET1 assay
Assay type: biochemical
Settings: 4 h, 4-hr incubation; Cmpd 0.488281 uM; relative to DMSO-only controls; individual runs; read-out: Percent Activity (normalized initial velocity of FRET1 hydrolysis)
Method: IDE activity was quantified by monitoring the degradation of Mca-[…](Dnp) (FRET1, 5 μM), fluoresceinated and biotinylated amyloid ß-protein (FAßB; 500 nM) or recombinant human insulin (50 nM) in PBS supplemented with 0.05% BSA. […] For quantitation of insulin degradation in primary murine skin fibroblasts, cells (1 x 10^5/well) were plated in 96-well plates and maintained in DMEM supplemented with 10% fetal bovine serum (FBS), 2mM glutamine, penicillin and streptomycin. […]
Ends that are not written are not given here.
reported.endpoint: remaining activity at 0.488281 µM (%)

substance	remaining activity at 0.488281 µM [%]
VHWDFRQW-NH2 [P12-1B]	82.8
WSPISGKFFQRF [P12-4]	96.1
VHWDFRQWWQPS-NH2 [P12-1A]	75
QSLPWCYP-NH2 [P12-3B]	96.9
Ac-FRQWWQPS [P12-1C]	104
WSPISGKFFQRF-NH2 [P12-4A]	81.8
VHWDFRQWWQPS [P12-1]	104
